tested on: MOLM-13 cells; test: Cell viability assay (CellTiter-Glo) in MOLM-13 cells, alone or with gilteritinib; assay type: cell-based; conditions: Homo sapiens, MOLM-13, 72 h, MOLM-13 cells, with gilteritinib 20 nM, three days, CellTiter-Glo; read-out: MOLM-13 IC50 gilteritinib
pIC50: −log10 of the molar value.
A collection of compounds and their measured pIC50
Attribute Measured: pIC50

Compound	Attribute Measured	Meas Value
O=C1CCC(N2C(=O)c3ccc(NCCCCCCn4cc(-c5cnc6cccc(F)c6n5)cn4)cc3C2=O)C(=O)N1 (stereo not shown) [GS-377]	pIC50	> 8.00
Cc1cccc(-c2cn([C@H]3C[C@H](CNc4ccc5c(c4)C(=O)N(C4CCC(=O)NC4=O)C5=O)C3)nc2C2CCOCC2)n1 (stereo partly shown) [GS-071]	pIC50	7.00 to 8.00
O=C1CCC(N2C(=O)c3ccc(NCCC[C@H]4C[C@H](n5cc(-c6cnccn6)cn5)C4)cc3C2=O)C(=O)N1 (stereo partly shown) [GS-235]	pIC50	6.00 to 7.00
C[C@@H]1CN(c2ccc3ncc(-c4cnn([C@H]5C[C@H](CCCNc6ccc7c(c6)C(=O)N(C6CCC(=O)NC6=O)C7=O)C5)c4)nc3c2)C[C@H](C)N1C (stereo partly shown) [GS-408]	pIC50	7.00 to 8.00
O=C1CCC(N2C(=O)c3ccc(NCCCCCC(=O)N4CCC(n5cc(N6CCCCC6)cn5)CC4)cc3C2=O)C(=O)N1 (stereo not shown) [GS-048]	pIC50	7.00 to 8.00
O=C1CCC(N2C(=O)c3ccc(NCCC[C@H]4C[C@H](n5cc(-c6ncccn6)cn5)C4)cc3C2=O)C(=O)N1 (stereo partly shown) [GS-242]	pIC50	6.00 to 7.00
O=C1CCC(N2C(=O)c3ccc(NCCC[C@H]4C[C@@H](n5cc(-c6cnc7cc(N8CCOCC8)ccc7n6)cn5)C4)cc3C2=O)C(=O)N1 (stereo partly shown) [GS-402]	pIC50	7.00 to 8.00

* * *

test system: MOLM-13 cells; test: Cell viability assay (CellTiter-Glo) in MOLM-13 cells, alone or with gilteritinib; format: cell-based; settings: Homo sapiens, MOLM-13, 72 h, MOLM-13 cells, compound alone (without gilteritinib), three days, CellTiter-Glo; read-out: MOLM-13 IC50
pIC50: −log10 of the molar value.
Attribute Measured: pIC50

Molecule	System Tested	Attribute Measured	Meas Value
O=C1CCC(N2C(=O)c3ccc(CNC4CC(n5cc(-c6cnc7ccccc7n6)c(C6CC6)n5)C4)cc3C2=O)C(=O)N1 (stereo not shown)	MOLM-13 cells	pIC50	< 6.00
CN1CCC(c2cccc3ncc(-c4cnn(CCCCCCNc5ccc6c(c5)C(=O)N(C5CCC(=O)NC5=O)C6=O)c4)nc23)CC1 (stereo not shown)	MOLM-13 cells	pIC50	< 6.00
O=C1CCC(N2C(=O)c3ccc(NC[C@H]4C[C@H](n5cc(N6CCOCC6)c(C6CC6)n5)C4)cc3C2=O)C(=O)N1 (stereo partly shown)	MOLM-13 cells	pIC50	< 6.00
O=C1CCC(N2C(=O)c3ccc(NCCC[C@H]4C[C@H](n5cc(-c6cnc7ccccc7n6)cn5)C4)cc3C2=O)C(=O)N1 (stereo partly shown)	MOLM-13 cells	pIC50	6.00 to 7.00

Origin of values: patent US20240050428A1
